- Substrate: C1O[C@@H]1[C@@H]1CO1
- METHOD: purified protein
- RUN CONDITIONS: 5 mM GSH, 0.10 M Tris-HCl pH 7.7, 37 °C, 1 h
Catalogue of Km values
Provide the reading as a plain figure in µM.

Example entries begin here.
PROTEIN | Km [µM]
human GST P1-1 (Homo sapiens) (protein) PPYTVVYFPVRGRCAALRMLLADQGQSWKEEVVTVETWQEGSLKASCLYGQLPKFQDGDLTLYQSNTILRHLGRTLGLYGKDQQEAALVDMVNDGVEDLRCKYISLIYTNYEAGKDDYVKALPGQLKPFETLLSQNQGGKTFIVGDQISFADYNLLDLLLIHEVLAPGCLDAFPLLSAYVGRLSARPKLKAFLASPEYVNLPINGNGKQ | 740
rat GST 5-5 (Rattus norvegicus) (protein) VLELYLDLLSQPCRAIYIFAKKNNIPFQMHTVELRKGEHLSDAFAQVNPMKKVPAMKDGGFTLCESVAILLYLAHKYKVPDHWYPQDLQARARVDEYLAWQHTTLRRSCLRTLWHKVMFPVFLGEQIRPEMLAATLADLDVNVQVLEDQFLQDKDFLVGPHISLADVVAITELMHPVGGGCPVFEGRPRLAAWYRRVEAAVGKDLFLEAHEVILKVRDCPPADPVIKQKLMPRVLTMIQ | 770
human GST T1-1 (Homo sapiens) (protein) GLELYLDLLSQPCRAVYIFAKKNDIPFELRIVDLIKGQHLSDAFAQVNPLKKVPALKDGDFTLTESVAILLYLTRKYKVPDYWYPQDLQARARVDEYLAWQHTTLRRSCLRALWHKVMFPVFLGEPVSPQTLAATLAELDVTLQLLEDKFLQNKAFLTGPHISLADLVAITELMHPVGAGCQVFEGRPKLATWRQRVEAAVGEDLFQEAHEVILKAKDFPPADPTIKQKLMPWVLAMIR | 790

Continue with the protein presented below.
Note to self: Km recorded for human GST A3-3 (Homo sapiens) (protein) AGKPKLHYFNGRGRMEPIRWLLAAAGVEFEEKFIGSAEDLGKLRNDGSLMFQQVPMVEIDGMKLVQTRAILNYIASKYNLYGKDIKERALIDMYTEGMADLNEMILLLPLCRPEEKDAKIALIKEKTKSRYFPAFEKVLQSHGQDYLVGNKLSRADISLVELLYYVEELDSSLISNFPLLKALKTRISNLPTVKKFLQPGSPRKPPADAKALEEARKIFRF was 480
